Origin of measurements: patent US20220024882A1

We begin with a simple list: items and their reported Bone.
Tested on: PC-3 PIP/flu tumor-bearing mice
Experiment: Biodistribution study in PC-3 PIP/flu tumor-bearing mice
Format: in vivo, athymic nude Balb/c mice
Settings: 4 h p.i., PC-3 PIP/flu tumor-bearing mice
Description: In vivo experiments were approved by the local veterinarian department and conducted in accordance with the Swiss law of animal protection. Mice were obtained from Charles River Laboratories, Sulzfeld, Germany, at the age of 5-6 weeks. […] Biodistribution studies were performed 12-15 days after PC-3 PIP/flu tumor cell inoculation. […] Selected tissues and organs were collected, weighed and measured using a γ-counter. […]
Write down the numeric answer in % IA/g and omit the unit.

CC(C)Cc1ccc(C(C)C(=O)NC(CC(=O)O)C(=O)NCCCCC(NC(=O)CN2CCN(CC(=O)O)CCN(CC(=O)O)CCN(CC(=O)O)CC2)C(=O)NCC2CCC(C(=O)NC(Cc3ccc4ccccc4c3)C(=O)NCCCCC(NC(=O)NC(CCC(=O)O)C(=O)O)C(=O)O)CC2)cc1 (stereo not drawn) [^177Lu-Ibu-Dα-PSMA, metal not drawn]; 0.37
CC(C)Cc1ccc(C(C)C(=O)NC(CC(N)=O)C(=O)NCCCCC(NC(=O)CN2CCN(CC(=O)O)CCN(CC(=O)O)CCN(CC(=O)O)CC2)C(=O)NCC2CCC(C(=O)NC(Cc3ccc4ccccc4c3)C(=O)NCCCCC(NC(=O)NC(CCC(=O)O)C(=O)O)C(=O)O)CC2)cc1 (stereo not drawn) [^177Lu-Ibu-N-PSMA, metal not drawn]; 0.56

Inquiry: Sample CC(C)Cc1ccc(C(C)C(=O)NCC[C@H](NC(=O)CN2CCN(CC(=O)O)CCN(CC(=O)O)CCN(CC(=O)O)CC2)C(=O)NCC2CCC(C(=O)N[C@@H](Cc3ccc4ccccc4c3)C(=O)NCCCC[C@H](NC(=O)N[C@@H](CCC(=O)O)C(=O)O)C(=O)O)CC2)cc1 (stereo partly drawn) [^177Lu-Ibu-sPSMA, metal not drawn] — what was its Bone?
Reply text: 1.1
